FYI, the data here is from PubChem BioAssay (NCI).

Kindly supply the reported growth values for the records listed here.
# Test system: HOP-92 NSCLC
# Procedure details: NCI-60 one-dose screen, 48 h (100 = growth as untreated, 0 = no growth, -100 = all killed)
# Study conditions: 10 µM unless noted
About 83,000 compounds went through this panel and 20% of them were active in at least one assay; those are over-represented in the sample as a whole.
Supply the numeric figure in %, leaving out any unit text.

Give the measured growth for C=CC(=O)Nc1cc2c(Nc3ccc(F)c(Cl)c3)ncnc2cc1OCCCN1CCOCC1
-51.7

Give the measured growth for O=C(NOCCO)c1ccc2cncn2c1Nc1ccc(I)cc1F
-19.6

Give the measured growth for CNS(=O)(=O)Nc1nccc(Cc2c(C)c3ccc(Oc4ncccn4)cc3oc2=O)c1F
-4.71

Give the measured growth for CCCCN1C(=O)c2cccc3c(-c4ccc5c(c4)ncn5C4CCCCC4)ccc(c23)C1=O
94.6

Give the measured growth for Cc1ccccc1Nc1nc2nonc2nc1Nc1cccc(C)c1C
22.5

Give the measured growth for CCOc1cc2ncc(C#N)c(Nc3ccc(OCc4ccccn4)c(Cl)c3)c2cc1NC(=O)/C=C/CN(C)C
39.3
